Origin of values: ChEMBL document CHEMBL1125889

tgt: Adenosine receptor A1 (Cavia porcellus)
Sequence (P47745 whole entry): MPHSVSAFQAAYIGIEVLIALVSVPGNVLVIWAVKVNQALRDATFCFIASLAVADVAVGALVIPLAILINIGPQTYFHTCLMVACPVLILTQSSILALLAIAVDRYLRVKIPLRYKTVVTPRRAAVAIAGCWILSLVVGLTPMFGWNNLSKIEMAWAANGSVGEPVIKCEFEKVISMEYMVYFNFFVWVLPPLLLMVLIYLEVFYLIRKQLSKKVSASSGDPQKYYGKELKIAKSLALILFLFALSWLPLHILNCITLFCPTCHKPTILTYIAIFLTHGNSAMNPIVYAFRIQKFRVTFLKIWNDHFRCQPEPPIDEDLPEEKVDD
assay.endpoint: pKi
Please keep in mind that pKi is minus log10 of the molar concentration; only the number is needed.

Form entry - test system: Adenosine receptor A1 (Cavia porcellus); read-out: pKi; molecule: CCCn1c(=O)c2nc[nH]c2n(CCC)c1=O
5.92

###

tgt: Adenosine A2 receptor (Rattus norvegicus, UniProt P29276+P30543)
Format: cell membranes, Membrane
assay.endpoint: Ki (nM)

Sample records with Ki:
1. CCCn1c(=O)c2nc(C(CC)c3ccccc3)[nH]c2n(CCC)c1=O (centres undefined): 1100
2. CCCC(CCC)c1nc2c(=O)n(CCC)c(=O)n(CCC)c2[nH]1: 590

[I] CCCn1c(=O)c2nc(C(C3CC3C)C3CC3C)[nH]c2n(CCC)c1=O (centres undefined)
[II] CCCn1c(=O)c2nc(C(c3ccccc3)C3CC3)[nH]c2n(CCC)c1=O (centres undefined)
Which is greater in Ki, the first item I or the second item II ? Identify your pick by its label.
II

###

Organism: Cavia porcellus
experiment.description: Ki ratio evaluated as the Ki of A2 to that A1 receptor values.
assay.endpoint: Ki ratio

[I] CCCn1c(=O)c2c(nc(C(C3CC3)C3CC3)n2CC)n(CCC)c1=O
[II] CCCn1c(=O)c2nc(C(CC)Oc3ccccc3)[nH]c2n(CCC)c1=O (centres undefined)
[III] CCCCn1c(=O)c2nc(C(C3CC3)C3CC3)[nH]c2n(CCCC)c1=O
[IV] CCCn1c(=O)c2nc(C(C)Cc3ccccc3)[nH]c2n(CCC)c1=O (centres undefined)
[V] CCCn1c(=O)c2nc(C(C)CC)[nH]c2n(CCC)c1=O (centres undefined)
Rank the items above by Ki ratio, largest value first. Write out the labels following the order that was asked for.
III, V, I, II, IV

[P] CCCC(CCC)c1nc2c(=O)n(CCC)c(=O)n(CCC)c2[nH]1
[Q] CCCn1c(=O)c2c(nc(C(C3CC3)C3CC3)n2C)n(CCC)c1=O
Could you determine which record has the numerically smaller Ki ratio? Candidates: P and Q Write down the label of the entry you select.
Q

[P] CCCn1c(=O)c2nc(C(CC)c3ccccc3)[nH]c2n(CCC)c1=O (centres undefined)
[Q] CCCn1c(=O)c2nc(C(C3CC3C)C3CC3C)[nH]c2n(CCC)c1=O (centres undefined)
Which numeric Ki ratio is bigger, that of P or that of Q ? Your choice should be expressed through its label.
Q
(Q: 100, P: 11)

[1] CCCn1c(=O)c2c(nc(C(C3CC3)C3CC3)n2CCC)n(CCC)c1=O
[2] CCCn1c(=O)c2nc(C(C)C)[nH]c2n(CCC)c1=O
[3] CCCn1c(=O)c2nc(C(c3ccc(OC)cc3)C3CC3)[nH]c2n(CCC)c1=O (centres undefined)
[4] CCCn1c(=O)c2nc(C(c3ccc(F)cc3)C3CC3)[nH]c2n(CCC)c1=O (centres undefined)
[5] CCn1c(=O)c2nc(C(C3CC3)C3CC3)[nH]c2n(CC)c1=O
List items by Ki ratio in falling order. Response format: the labels, sorted as the prompt asks.
5, 2, 3, 4, 1

[a] CCCn1c(=O)c2nc(C(CC)CC)[nH]c2n(CCC)c1=O
[b] CCCn1c(=O)c2nc(C(c3ccccc3)C3CCCC3)[nH]c2n(CCC)c1=O (centres undefined)
[c] CCCn1c(=O)c2nc(C(C)Cc3ccc(OC)cc3)[nH]c2n(CCC)c1=O (centres undefined)
I would appreciate it if you could sort these 3 compounds by Ki ratio, starting from the smallest number. Sort and list the labels as requested.
c, b, a

[P] Cn1c(=O)c2nc(C(C3CC3)C3CC3)[nH]c2n(C)c1=O
[Q] CCCn1c(=O)c2nc(C(c3ccccc3)C3CC3)[nH]c2n(CCC)c1=O (centres undefined)
Would you mind telling me which has the lower recorded Ki ratio between P and Q ? Lab log: write the label of the selected item as the result.
Q
